- experimental_system: Indoleamine 2,3-dioxygenase 1 (Homo sapiens, UniProt P14902)
- Sequence (P14902 whole entry): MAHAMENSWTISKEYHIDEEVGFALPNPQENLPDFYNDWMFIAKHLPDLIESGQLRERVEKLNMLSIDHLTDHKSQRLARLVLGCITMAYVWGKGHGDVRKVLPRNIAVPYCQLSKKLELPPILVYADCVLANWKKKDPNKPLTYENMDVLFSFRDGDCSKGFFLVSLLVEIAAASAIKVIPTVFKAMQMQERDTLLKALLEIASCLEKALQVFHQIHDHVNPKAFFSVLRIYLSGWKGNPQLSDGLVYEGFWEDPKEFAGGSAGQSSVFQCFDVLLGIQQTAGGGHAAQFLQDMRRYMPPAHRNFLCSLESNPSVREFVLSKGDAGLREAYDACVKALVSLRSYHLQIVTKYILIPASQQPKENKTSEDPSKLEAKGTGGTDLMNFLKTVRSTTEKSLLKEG
- test_description: Inhibition of recombinant human IDO expressed in Escherichia coli using L-tryptophan as substrate after 60 mins by spectrophotometry
experimental_endpoint: IC50 (µM)

INSERT INTO results (compound, experimental_system, experimental_endpoint, experimental_value) VALUES
  ('CC1=CCC[C@@H](C)[C@]1(C)CC[C@@]1(C)[C@@H]2CC[C@]3(C)[C@H](CC[C@]4(C)c5c(C(O)C(=O)O)ccc(O)c5C[C@@H]34)[C@@]2(C)CC[C@@H]1O (relative stereo)', 'Indoleamine 2,3-dioxygenase 1 (Homo sapiens, UniProt P14902)', 'IC50', 11);

P = CC1(C)CCC[C@]2(C)O[C@H]3CC[C@@]4(C)[C@@H](CC[C@]5(C)[C@@H]4CC[C@]4(C)c6c(C(O)C(=O)O)ccc(O)c6C[C@@H]54)[C@]3(C)CC[C@@H]12 (some centres undefined) [HALICLOIC ACID A]
Q = CC1(C)CCC[C@]2(C)O[C@H]3CC[C@@]4(C)[C@@H](CC[C@]5(C)[C@@H]4CC[C@]4(C)c6c(C=O)ccc(O)c6C[C@@H]54)[C@]3(C)CC[C@@H]12
R = CC1=CCC[C@@H](C)[C@]1(C)CC[C@@]1(C)[C@@H]2CC[C@]3(C)[C@H](CC[C@]4(C)c5c(C=O)ccc(O)c5C[C@@H]34)[C@@]2(C)CC[C@@H]1O
Sort entries by IC50 from minimum to maximum value. Would you mind listing the labels in the order requested?
P, R, Q
(P: 10 µM, R: 29 µM, Q: 53 µM)
